Experiment: Cytotoxicity assay
Format: cell-based
Settings: human, HK-2 cells
Experimental readout: viability at 24 h, 256 μg mL^−1

[[record]]
compound = "CCN(CC)c1ccc(C=NNC(=O)c2ccccn2)c(O)c1 [D5]"
meas_value = "> 85%"


====

Test: Cytotoxicity assay
Format: cell-based
Conditions: human, LO2 cells
Experimental readout: viability at 24 h, 256 μg mL^−1

[[record]]
cpd_smiles = "CCN(CC)c1ccc(C=NNC(=O)c2ccccn2)c(O)c1"
meas_value = "> 85%"


====

Test: Plasma protein binding, equilibrium dialysis
Type: in vitro ADME
Conditions: Sprague-Dawley, rat
Experimental readout: fraction unbound at 24 h, 30 μM

[[record]]
compound = "CCN(CC)c1ccc(C=NNC(=O)c2ccccn2)c(O)c1 [D5]"
meas_value = 0.134


The origin of these recorded values is paper PMC12462367.
